# System: female gametes
# experimental protocol: Female gamete inhibition assay
# Type: cell-based, Plasmodium falciparum
# female gamete inhibition % values compiled below
experimental readout: female gamete inhibition % (%)

>>> observed_result("CC(C)=CCC/C(C)=C/CC/C(C)=C/CNCCNC1C2CC3CC(C2)CC1C3 (centres unmarked) [Compound 21]")
86.30
>>> observed_result("CC(C)=CCC/C(C)=C/CNCCNC1(Cc2ccccc2)C2CC3CC(C2)CC1C3 (centres unmarked) [Compound 4]")
74.48
>>> observed_result("CC(C)CCCC(C)CCNCCNC1C2CC3CC(C2)CC1C3 (centres unmarked) [Compound 19]")
86.30
>>> observed_result("CCC1(NCCNC/C=C(\\C)CCC=C(C)C)C2CC3CC(C2)CC1C3 (centres unmarked) [Compound 2]")
78.88
>>> observed_result("CC(C)=CCC/C(C)=C/CNCCNC1(C)C2CC3CC(C2)CC1C3 (centres unmarked) [Compound 7]")
34.05
>>> observed_result("CC(C)CCCC(C)CCCC(C)CCNCCNC1C2CC3CC(C2)CC1C3 (centres unmarked) [Compound 20]")
77.52
>>> observed_result("CC(C)=CCC/C(C)=C/CNCCCNC1C2CC3CC(C2)CC1C3 (centres unmarked) [Compound 13]")
87.02
>>> observed_result("CCCCC1(NCCNC/C=C(\\C)CCC=C(C)C)C2CC3CC(C2)CC1C3 (centres unmarked) [Compound 3]")
67.05

---

# experimental protocol: in vitro
# Format: in vitro ADME
# condition summary: human, microsomes
Rule: microsomal CLint at 1 µM of 400 µL/min/mg or more gives Satisfied; anything lower gives Not satisfied.

>>> category_label("CC(C)=CCC/C(C)=C/CNCCNC1C2CC3CC(C2)CC1C3 (centres unmarked) [Compound 1, reference compound]")
"Satisfied"
>>> category_label("CC(C)=CCC/C(C)=C/CNCCNC(C)(C)C1C2CC3CC(C2)CC1C3 (centres unmarked)")
"Satisfied"
>>> category_label("CCCC1(NCCNC/C=C(\\C)CCC=C(C)C)C2CC3CC(C2)CC1C3 (centres unmarked)")
"Not satisfied"
>>> category_label("CC(C)=CCC/C(C)=C/CNCCNC1(C)C2CC3CC(C2)CC1C3 (centres unmarked)")
"Not satisfied"
